B1: Transitional endoplasmic reticulum ATPase, residues 26 to 106; numbered along this chain, P55072 (parent)
chain: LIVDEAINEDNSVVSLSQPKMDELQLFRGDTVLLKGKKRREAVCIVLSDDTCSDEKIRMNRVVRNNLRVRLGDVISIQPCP

# Variants of: B1
# test summary: abundance fitness (aPCA) (normalised: wild type 0, dead -1); higher = more abundant; growth selection in yeast, the domain comes from the species named
# particulars: Homo sapiens
// reported abundance fitness per item
Give the figure by itself; no unit, no explanation.

A selection of reference data follows.
Qu. Return abundance fitness for the following variant: `I75A`
Ans. -0.246

Qu. Return abundance fitness for the following variant: `R58W`
Ans. -0.625

Qu. Return abundance fitness for the following variant: `V13K`
Ans. -0.183

Continuing:
Qu. Return abundance fitness for the following variant: `T31W`
Ans. -0.134

Qu. Return abundance fitness for the following variant: `I7D`
Ans. 0.032

Qu. Return abundance fitness for the following variant: `S53L`
Ans. -0.026

Qu. Return abundance fitness for the following variant: `P79M`
Ans. -0.076

Qu. Return abundance fitness for the following variant: `D49M`
Ans. -0.78

Qu. Return abundance fitness for the following variant: `L47M`
Ans. 0.082

Qu. Return abundance fitness for the following variant: `Q25R`
Ans. -0.081

Qu. Return abundance fitness for the following variant: `P79S`
Ans. -0.016
